assay: Solubility of the compound in pH 1 0.1N HCl buffer incubated up to 72 hrs by shake flask method; assay type: physicochemical
Listed here are compounds together with their documented solubility thermodynamic at 72 h.

Q) Reported solubility thermodynamic at 72 h for O=C(Nc1ccc(OC(F)(F)Cl)cc1)c1cnc(N2CC[C@@H](O)C2)c(-c2ccn[nH]2)c1 : what is it?
A) > 1.5 mg/mL

Q) Reported solubility thermodynamic at 72 h for O=C(Nc1ccc(OC(F)(F)F)cc1)c1cncc(-c2cccnc2)c1 : what is it?
A) > 1.5 mg/mL

###

assay: Efflux ratio of apparent permeability across basolateral to apical side over apical to basolateral side in human Caco2 cells; assay type: ADME, cell-based; details: Caco-2
MEASURED PARAMETER: efflux ratio

Q) Reported efflux ratio for O=C(Nc1ccc(OC(F)(F)F)cc1)c1cncc(-c2cccnc2)c1 : what is it?
A) 0.41
